- condition description: buffer; pH 7.4; 200.0 µM
Please go through the items and note down their log10 of solubility kinetic.
A value of 2 here means solubility kinetic of 100 in µg/mL, since values are log10.

Query string: Quickly give me recorded log10 of solubility kinetic for Cc1cc(C)nc(NC2=NCCN2C(=S)Nc2c(C)cccc2C)n1
Result string: 1.25

Query string: // Input: O=C(/C=C/c1ccccc1)NCCc1nc2ccccc2[nH]1 . Output its log10 of solubility kinetic only.
Result string: 1.37

Query string: Consider the molecule COc1ccc(CN(C)C(=O)c2sccc2-c2ccccc2)c(OC)c1 and give its recorded log10 of solubility kinetic.
Result string: 1.08

Query string: Please report the measured log10 of solubility kinetic for COc1ccc(NC(=S)Nc2cccnc2)c(OC)c1
Result string: 1.63

Query string: Tell me measured log10 of solubility kinetic for O=C(O)c1cccnc1SCc1cccc(Cl)c1 please.
Result string: 1.62

Query string: Give reported log10 of solubility kinetic value for O=C(NCc1ccco1)c1ccc2c(c1)N(Cc1ccccc1)CCS2
Result string: 1.11

Query string: Indicate the recorded log10 of solubility kinetic value for this molecule: COc1ccc(C)cc1NC(=O)Nc1ccncc1
Result string: 0.66

Query string: For the molecule COc1cc(OC)c(NC(=O)Cc2cccs2)cc1Cl , give its reported log10 of solubility kinetic.
Result string: 1.51

Query string: Specify measured log10 of solubility kinetic for FC(F)(F)c1ccc(NC2=NCCCS2)cc1 .
Result string: 1.19

Query string: Check the records and state log10 of solubility kinetic for O=c1oc2ccccc2n1Cc1ccccc1F
Result string: 0.62

Query string: Provide only the value of recorded log10 of solubility kinetic for O=C(OCC(=O)N1CCOCC1)c1ccc(Cl)cc1[N+](=O)[O-]
Result string: 1.68

Query string: Return reported log10 of solubility kinetic. Input molecule: COc1ccc(/C=N/OCc2ccccc2C#N)c(OC)c1
Result string: -0.40

Query string: Give log10 of solubility kinetic for the following molecule: N#C/C(=C/c1cccs1)c1ccccn1
Result string: 0.85

Query string: Item Cc1ccc(NC(=O)C2CC(=O)N(CCc3ccccc3)C2)c(C)c1 (stereo not given) : provide log10 of solubility kinetic
Result string: 1.62

Query string: Give log10 of solubility kinetic for the following molecule: CCc1ccc(NS(=O)(=O)c2ccc3[nH]c(=O)[nH]c3c2)cc1
Result string: 0.74

// data source = PubChem BioAssay AID1996
